Test system: Plasmopara viticola
Assay: Grape Downy Mildew control (Example E)
Format: in vivo
Conditions: detached grape leaves, cultivar Emperor, relative to untreated check plants, read-out: % Control GDM
Each record here notes measured pest or weed control at 250 ppm.

{"compound": "CCCN(CCOc1c(Cl)cc(Cl)cc1Cl)C(=O)c1cncnc1 [Compound 2]", "unit.symbol": "%", "pest or weed control at 250 ppm": 3}
{"compound": "CCCN(CCOc1c(C)cc(C)cc1C)C(=O)c1cnccn1 [Compound 15]", "unit.symbol": "%", "pest or weed control at 250 ppm": 0}
{"compound": "CCOCCN(CCOc1c(Cl)cc(Cl)cc1Cl)C(=O)c1cnccn1 [Compound 34]", "unit.symbol": "%", "pest or weed control at 250 ppm": 7}
{"compound": "CCCN(CCCc1c(Cl)cccc1Cl)C(=O)c1cnccn1 [Compound 25]", "unit.symbol": "%", "pest or weed control at 250 ppm": 0}
{"compound": "CCCN(CCOc1c(Cl)cc(Cl)cc1Cl)C(=O)c1ccncc1 [Compound 10]", "unit.symbol": "%", "pest or weed control at 250 ppm": 9}
{"compound": "CCCN(CCOc1c(C)cc(C)cc1C)C(=O)c1cccnc1 [Compound 14]", "unit.symbol": "%", "pest or weed control at 250 ppm": 0}
{"compound": "CCCN(Cc1c(Cl)cccc1Cl)C(=O)c1cnccn1 [Compound 28]", "unit.symbol": "%", "pest or weed control at 250 ppm": 3}
{"compound": "CCCN(CCOc1ccc(C(C)(C)C)cc1)C(=O)c1cccnc1 [Compound 6]", "unit.symbol": "%", "pest or weed control at 250 ppm": 0}
{"compound": "CCOCCN(CCOc1c(Cl)cc(Cl)cc1Cl)C(=O)c1cccnc1 [Compound 33]", "unit.symbol": "%", "pest or weed control at 250 ppm": 18}
{"compound": "O=C(c1cnccn1)N(CCO)CCOc1c(Cl)cc(Cl)cc1Cl [Compound 31]", "unit.symbol": "%", "pest or weed control at 250 ppm": 29}
{"compound": "CCN(CCOc1c(Cl)cc(Cl)cc1Cl)C(=O)c1cccnc1 [Compound 35]", "unit.symbol": "%", "pest or weed control at 250 ppm": 41}
{"compound": "CCCN(CCOc1c(Cl)cccc1Cl)C(=O)c1cncnc1 [Compound 13]", "unit.symbol": "%", "pest or weed control at 250 ppm": 10}
{"compound": "CCCN(CCCc1ccc(Cl)cc1Cl)C(=O)c1cnccn1 [Compound 26]", "unit.symbol": "%", "pest or weed control at 250 ppm": 13}
{"compound": "CCCN(CC(C)Cc1ccc(C(C)(C)C)cc1)C(=O)c1cnccn1 (stereo not shown) [Compound 24]", "unit.symbol": "%", "pest or weed control at 250 ppm": 7}
{"compound": "CCN(CCOc1c(Cl)cc(Cl)cc1Cl)C(=O)c1cnccn1 [Compound 36]", "unit.symbol": "%", "pest or weed control at 250 ppm": 45}
{"compound": "CCCN(CCOc1c(Cl)cc(Cl)cc1Cl)C(=O)c1cccnc1 [Compound 1]", "unit.symbol": "%", "pest or weed control at 250 ppm": 50}
{"compound": "O=C(c1cccnc1)N(CCO)CCOc1c(Cl)cc(Cl)cc1Cl [Compound 30]", "unit.symbol": "%", "pest or weed control at 250 ppm": 54}
{"compound": "CCCN(C(=O)c1cccnc1)C(C)COc1c(Cl)cc(Cl)cc1Cl (stereo not shown) [Compound 20]", "unit.symbol": "%", "pest or weed control at 250 ppm": 7}
{"compound": "CCCN(CCOc1ccc(Cl)cc1Cl)C(=O)c1cccnc1 [Compound 8]", "unit.symbol": "%", "pest or weed control at 250 ppm": 0}
{"compound": "CCCN(Cc1c(Cl)cccc1Cl)C(=O)c1cccnc1 [Compound 29]", "unit.symbol": "%", "pest or weed control at 250 ppm": 27}
{"compound": "CCCN(CCCc1ccc(Cl)cc1Cl)C(=O)c1cccnc1 [Compound 27]", "unit.symbol": "%", "pest or weed control at 250 ppm": 0}
{"compound": "CCCN(C(=O)c1cnccn1)C(C)COc1c(Cl)cc(Cl)cc1Cl (stereo not shown) [Compound 21]", "unit.symbol": "%", "pest or weed control at 250 ppm": 67}
{"compound": "CCCN(CCOc1c(Cl)cc(Cl)cc1Cl)C(=O)c1cnccn1 [Compound 3]", "unit.symbol": "%", "pest or weed control at 250 ppm": 13}
{"compound": "CCCN(CCCOc1c(Cl)cc(Cl)cc1Cl)C(=O)c1cccnc1 [Compound 19]", "unit.symbol": "%", "pest or weed control at 250 ppm": 30}
{"compound": "CCCN(CC(C)Cc1ccc(C(C)(C)C)cc1)C(=O)c1cccnc1 (stereo not shown) [Compound 23]", "unit.symbol": "%", "pest or weed control at 250 ppm": 0}
{"compound": "CCCN(CCOc1c(Cl)cc(Cl)cc1Cl)C(=O)c1cncn1C [Compound 12]", "unit.symbol": "%", "pest or weed control at 250 ppm": 19}
{"compound": "CCCN(CCOc1c(Cl)cc(Cl)cc1Cl)C(=S)c1cccnc1 [Compound 17]", "unit.symbol": "%", "pest or weed control at 250 ppm": 4}
{"compound": "CCCN(CCCc1c(Cl)cccc1Cl)C(=O)c1cccnc1 [Compound 22]", "unit.symbol": "%", "pest or weed control at 250 ppm": 7}
{"compound": "CCCN(CCOc1c(C)cc(C)cc1C)C(=O)c1cncnc1 [Compound 16]", "unit.symbol": "%", "pest or weed control at 250 ppm": 7}
{"compound": "C=CCN(CCOc1c(Cl)cc(Cl)cc1Cl)C(=O)c1cccnc1 [Compound 32]", "unit.symbol": "%", "pest or weed control at 250 ppm": 41}
{"compound": "CCCN(CCOc1ccc(Cl)cc1Cl)C(=O)c1cnccn1 [Compound 7]", "unit.symbol": "%", "pest or weed control at 250 ppm": 13}
{"compound": "CCCN(CCOc1c(Cl)cc(Cl)cc1Cl)C(=O)c1ccccn1 [Compound 9]", "unit.symbol": "%", "pest or weed control at 250 ppm": 19}
{"compound": "CCCN(CCOc1ccc(C(C)(C)C)cc1)C(=O)c1cnccn1 [Compound 5]", "unit.symbol": "%", "pest or weed control at 250 ppm": 28}
{"compound": "CCCN(CCOc1c(Cl)cc(Cl)cc1Cl)C(=S)c1cnccn1 [Compound 18]", "unit.symbol": "%", "pest or weed control at 250 ppm": 43}
